Source of measurements: patent US10428140B2

hEphB6-SEAP-: absorbance at 450 nm, percentage with respect to hEphA4-SEAP-His as 100% values, listed per item
Target: T1, human EphB6 (Homo sapiens, UniProt O15197)
T1 construct: a protein of the extracellular region of each human Eph receptor fused with the SEAP protein and the His tag; made in house; host or cells: Expi293F cells
T1 sequence (O15197 32-594 limits assumed): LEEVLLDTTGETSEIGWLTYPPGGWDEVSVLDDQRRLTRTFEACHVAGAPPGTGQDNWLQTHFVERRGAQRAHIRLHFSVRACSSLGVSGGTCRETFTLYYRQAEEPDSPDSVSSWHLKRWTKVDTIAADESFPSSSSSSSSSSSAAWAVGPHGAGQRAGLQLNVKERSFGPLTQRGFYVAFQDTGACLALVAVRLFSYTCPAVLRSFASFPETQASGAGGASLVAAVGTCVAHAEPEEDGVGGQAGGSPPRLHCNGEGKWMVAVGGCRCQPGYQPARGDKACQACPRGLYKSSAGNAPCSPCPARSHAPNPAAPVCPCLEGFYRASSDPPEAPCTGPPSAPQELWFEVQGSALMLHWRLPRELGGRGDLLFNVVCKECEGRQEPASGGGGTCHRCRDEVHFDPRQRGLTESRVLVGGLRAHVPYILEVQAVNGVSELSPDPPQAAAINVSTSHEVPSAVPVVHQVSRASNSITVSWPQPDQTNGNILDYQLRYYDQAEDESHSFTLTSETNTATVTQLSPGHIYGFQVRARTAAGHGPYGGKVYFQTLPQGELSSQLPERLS
Assay: Selectivity ELISA of humanized antibodies for human Eph receptor
Assay type: binding
Settings: coated protein 1 nM
# value in %; strip the unit string

89 (antibody, V domains shown, constant regions without entry; synthetic humanized antibody light chain variable region sequence; synthetic humanized antibody heavy chain variable region sequence) VL: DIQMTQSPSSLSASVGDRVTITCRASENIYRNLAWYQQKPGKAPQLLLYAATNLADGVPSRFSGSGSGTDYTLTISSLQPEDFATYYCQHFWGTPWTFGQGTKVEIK VH: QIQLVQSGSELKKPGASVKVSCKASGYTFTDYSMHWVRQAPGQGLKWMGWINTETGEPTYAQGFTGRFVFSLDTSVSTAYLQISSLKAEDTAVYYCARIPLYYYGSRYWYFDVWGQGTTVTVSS; 4.8
71 (antibody, V domains shown, synthetic humanized antibody heavy chain variable region sequence; synthetic humanized antibody light chain variable region sequence) VH: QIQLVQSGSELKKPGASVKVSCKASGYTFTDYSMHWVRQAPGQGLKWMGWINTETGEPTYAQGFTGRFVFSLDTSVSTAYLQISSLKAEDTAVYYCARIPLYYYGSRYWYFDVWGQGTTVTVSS VL: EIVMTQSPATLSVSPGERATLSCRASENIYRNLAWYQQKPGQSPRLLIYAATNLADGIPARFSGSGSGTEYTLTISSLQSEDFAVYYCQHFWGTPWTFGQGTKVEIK; 5.3
76 (antibody, V domains shown, synthetic humanized antibody heavy chain variable region sequence; synthetic humanized antibody light chain variable region sequence) VH: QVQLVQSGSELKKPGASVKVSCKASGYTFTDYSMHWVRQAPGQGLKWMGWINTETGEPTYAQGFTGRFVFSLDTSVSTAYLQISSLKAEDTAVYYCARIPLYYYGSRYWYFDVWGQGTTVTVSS VL: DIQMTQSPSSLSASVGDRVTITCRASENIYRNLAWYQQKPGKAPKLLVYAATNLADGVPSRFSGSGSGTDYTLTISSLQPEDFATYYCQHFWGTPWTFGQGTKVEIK; 5.2

Request the reported hEphB6-SEAP-: absorbance at 450 nm, percentage with respect to hEphA4-SEAP-His as 100% associated with 132 (antibody, V domains shown, synthetic humanized antibody heavy chain variable region sequence; synthetic humanized antibody light chain variable region sequence) VH: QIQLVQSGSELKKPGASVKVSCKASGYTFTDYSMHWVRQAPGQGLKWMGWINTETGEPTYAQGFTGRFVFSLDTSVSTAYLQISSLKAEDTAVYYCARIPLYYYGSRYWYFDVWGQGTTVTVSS VL: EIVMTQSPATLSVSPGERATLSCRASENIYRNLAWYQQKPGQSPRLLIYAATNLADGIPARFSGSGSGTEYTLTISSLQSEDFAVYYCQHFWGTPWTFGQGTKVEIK
4.7

I'd like to know its hEphB6-SEAP-: absorbance at 450 nm, percentage with respect to hEphA4-SEAP-His as 100%. The molecule in question is 73 (antibody, V domains shown, synthetic humanized antibody heavy chain variable region sequence; synthetic humanized antibody light chain variable region sequence) VH: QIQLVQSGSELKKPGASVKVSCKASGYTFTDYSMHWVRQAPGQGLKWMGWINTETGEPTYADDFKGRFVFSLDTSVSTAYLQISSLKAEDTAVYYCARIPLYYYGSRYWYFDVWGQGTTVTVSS VL: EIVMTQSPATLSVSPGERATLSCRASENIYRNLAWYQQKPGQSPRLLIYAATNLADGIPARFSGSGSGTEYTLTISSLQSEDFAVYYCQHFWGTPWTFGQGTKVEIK
5.6

Using the record for 140 (antibody, V domains shown, synthetic humanized antibody heavy chain variable region sequence; synthetic humanized antibody light chain variable region sequence) VH: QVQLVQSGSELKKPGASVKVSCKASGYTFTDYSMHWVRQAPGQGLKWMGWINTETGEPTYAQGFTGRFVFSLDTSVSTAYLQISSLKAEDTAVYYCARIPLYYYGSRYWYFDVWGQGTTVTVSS VL: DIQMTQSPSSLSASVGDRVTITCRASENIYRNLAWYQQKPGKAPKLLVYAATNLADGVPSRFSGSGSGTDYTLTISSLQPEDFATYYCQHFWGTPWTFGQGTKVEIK , report its hEphB6-SEAP-: absorbance at 450 nm, percentage with respect to hEphA4-SEAP-His as 100%.
5.2

What value of hEphB6-SEAP-: absorbance at 450 nm, percentage with respect to hEphA4-SEAP-His as 100% has been reported for the following molecule? 156 (antibody, V domains shown, synthetic humanized antibody heavy chain variable region sequence; synthetic humanized antibody light chain variable region sequence) VH: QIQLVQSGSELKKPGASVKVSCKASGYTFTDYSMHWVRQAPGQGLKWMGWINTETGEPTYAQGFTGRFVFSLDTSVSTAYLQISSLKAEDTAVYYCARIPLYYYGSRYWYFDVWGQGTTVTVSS VL: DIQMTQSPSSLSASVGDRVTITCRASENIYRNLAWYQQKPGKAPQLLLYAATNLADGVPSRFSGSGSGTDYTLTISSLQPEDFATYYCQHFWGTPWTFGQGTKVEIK
5.7
